experiment: folding enthalpy; higher = less favourable; fluorescence melt of hairpins on a sequencing array, two-state fit; conditions: sodium 0.088 M
test_readout: folding enthalpy (kcal/mol)
Please reply with the bare figure in kcal/mol and do not write the unit itself.

// lookup folding enthalpy for GTCGCCACGAAAGTGGAC (((..(((....))))))
-9.49

Record: GCTTTAGGAAACTAGAGC (((.(((....))).)))
-31.9

Follow-up item: GGAAAGACGAAAGTCTCC (((..(((....))))))
-14.5

Same lookup for GATTGACCGAAAGGTATC (((..(((....)))))) , please.
-11.6

Entry to check: GGACCGCGAAAGCGCTCC (((.(((....))).)))
-16.2

Now the same for GCTATGGGAAACCATAAC (.(((((....))))).)
-12.8

Also GAAAAGGGAAACTTTTTC (((((.(....).))))) ?
-11.5

How about this sequence: GCCCTGGGAAACCAAGGC (((.(((....))).)))
-30.1

Queued: GCTTCTGCGAAAGCAAGC (((..(((....))))))
-9.99

Param item: GTTGTGGGAAACCATAAC (((.(((....))).)))
-32.4

// same read-out, input: GACCATGGAAACATGGCC (.(((((....))))).)
-15.2

Now consider GATCTACAGATAGATC ((((((....)))))) .
-26.6

* * *

Assignment: determine reported folding enthalpy for the given sequences.
assay: folding enthalpy; higher = less favourable; fluorescence melt of hairpins on a sequencing array, two-state fit; conditions: sodium 0.088 M
Return type: number; implicit unit kcal/mol.

What does the data say about its folding enthalpy? Entry: GAAAGCGAAAGCTGTTC ((((((....))).)))
-10.8

What about this sequence? GGTGAGGGAAACCTCGCC ((.((((....)))).))
-36.5

Now give it for GCTCAGCGAAAGCTAGC (((.(((....)))))) too.
-20

Same for CGGTGGAAACACCG (((((....)))))
-26.1

Try the sequence GTTGGGGGAAACTCCAGC (.(((.(....).))).)
-23.5

Then this sequence: GAAGACCGAAAGGTGTTC (((.(((....))).)))
-33

Thanks! And GCATTGCGAAAGCGGTGC (((..((....))..))) ?
-22.3

Note, next up: GATCGGCAGCCCGATC ((((((....))))))
-36.1

Would you kindly repeat that for GATCTAAAGCTAGATC ((((((....)))))) ?
-18.3

Input GACAATGGAAACATTGTC (((((((....)))))))
-47.7

Please answer likewise for GATCCTACTTAGGATC ((((((....))))))
-37.3

Try GTCTGGGGAAACCCAGGC (.(((((....))))).) next.
-28.1

* * *

assay: folding enthalpy; higher = less favourable; fluorescence melt of hairpins on a sequencing array, two-state fit; conditions: sodium 0.088 M
// label = criterion met if folding enthalpy is not less than -20 kcal/mol, otherwise criterion not met

Has GATCTCTCGTGAGATC ((((((....)))))) a recorded folding enthalpy greater than or equal to -20 kcal/mol?
criterion not met

Again, but for CGTGAACGGAAACGTACG (((..(((....))))))
criterion not met

Similarly, GATCACGATGGTGATC ((((((....)))))) ?
criterion not met

Try this sequence next: GCGAACGAAAGTTTCGC ((((((....))).)))
criterion not met

Ok, now GATCCCTGAGGGATC ((((((...))))))
criterion not met

Next: CGTACGGAAACGTACACG ((((((....)))..)))
criterion met

And GGAGTTGGAAACGACTTC (.(((.(....).))).) ?
criterion not met

Continue with GATCACACTGTGATC ((((((...))))))
criterion not met

Now this one: GATCAATTGTTGATC ((((((...))))))
criterion not met

Also GCAGGCGGAAACGCCCAC (..((((....))))..) , if possible.
criterion met

And for GATCCAGTATGGATC ((((((...)))))) ?
criterion not met

Can you handle CGCATCGGAAACGACGCG (((.(((....))).))) next?
criterion not met

Please give the result for CGACTCGGAAACGAATCG (((.(((....))).))) too.
criterion not met

Please answer likewise for GCACCGGGAAACTGGTGC (((((.(....).)))))
criterion not met

Follow-up entry: GGATACCGAAAGGTTCC (((.(((....))))))
criterion not met

Also need GTGAGGGGAAACTCTCAC (((((.(....).))))) , thanks.
criterion not met

Entry to check: GGGTTCGAAAGAAACCCC ((((((....)))..)))
criterion met

Then GAAGGAGGAAACTTCTTC ((((.((....)).)))) ?
criterion not met

How about GATCAGGTACCTGATC ((((((....)))))) ?
criterion not met

Entry to check: GCACCGACGAAAGTCTGC (((..(((....))))))
criterion met

// query: GCCCTGCGAAAGCCCGGC (((..((....))..)))
criterion not met

Next up: GGACGCGAAAGCGGTCC ((((((....))).)))
criterion not met

What would you report for GCCACCGGAAACGGCAGC ((..(((....)))..)) ?
criterion met

What would you report for GGGGGTACGAAAGTACCC (((..(((....)))))) ?
criterion met

Try the sequence GTCGCACCGAAAGGTGAC (((..(((....))))))
criterion met

Moving on to the next sequence: GACCAAGGAAACTTGGCC (.(((((....))))).)
criterion met

Ok, now GTACCCGAAAGGGGCTAC ((((((....)))..)))
criterion met

Ok, now GTAACCCCGAAAGGGTAC (((..(((....))))))
criterion met

Follow-up entry: GATCGATTTTCGATC ((((((...))))))
criterion not met

Please answer likewise for GGTGGCGAAAGCCCACC ((((((....))).)))
criterion met

Queued: GGGTGCGGAAACGCACTC (.(((((....))))).)
criterion met

Also need GCGATATGTCGC ((((....)))) , thanks.
criterion not met

Try this sequence next: TCATGGAAACATGA (((((....)))))
criterion not met

And what about the sequence GTGAGTCGAAAGACCCAC (((.(((....))).))) ?
criterion not met

How about this sequence: GAGGACGAAAGTCGGCTC ((((((....)))..)))
criterion met

What about this sequence? GCCGCGCGAAAGCGAAGC ((..(((....)))..))
criterion met

Proceed to GAGGAAGGAAACTTTCTC (((.(((....))).)))
criterion not met

What do you get for GATCCACCATTGGATC ((((((....)))))) ?
criterion not met

// query: GGAGTTCGAAAGAAGTCC (((.(((....))).)))
criterion not met

Try GCGCAGCGAAAGCTTGGC ((..(((....)))..)) next.
criterion met

What would you report for GGGTTGGAAACAACCC ((((((....)))))) ?
criterion not met

// next record CGTGATCGGAAACGAACG (((..(((....))))))
criterion met

What do you get for GAACGGACGAAAGTCTTC (((..(((....)))))) ?
criterion met

// repeat for GGAGCGGGAAACCACTCC ((((.((....)).)))) and report
criterion not met

Also GCAGTGCGAAAGCATTGC (((.(((....))).))) ?
criterion not met

Another: GATGGCGAAAGCCAATC ((((((....))).)))
criterion met

Also GGGGCTGGAAACAGTCCC (((.(((....))).))) , if possible.
criterion not met

Continue with GGTCTCGGAAACGAGGCC ((.((((....)))).))
criterion not met
